- system-under-test: Virion infectivity factor (Human immunodeficiency virus type 1 group M subtype B (isolate BH10)) + Virion infectivity factor (Human immunodeficiency virus type 1 group M subtype B (isolate BRU/LAI)) + Virion infectivity factor (Human immunodeficiency virus type 1 group M subtype B (isolate PCV12)) + Virion infectivity factor (Human immunodeficiency virus type 1 group M subtype B (isolate HXB2)) + DNA dC->dU-editing enzyme APOBEC-3G (Homo sapiens) (UniProt P69720+P69721+P69722+P69723+Q9HC16)
- experiment-description: inhibitors of Vif binding to APOBEC3G peptide, primary screen, biochemical, TR-FRET, GST-Vif 1-94, biotin-A3G peptide, dose response retest (AID 1117319);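 further: Vif residues 1-94 fused to GST binding biotinylated APOBEC3G peptide 110-148; 0% = full assay without inhibitor and 100% = GST in place of GST-Vif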
- condition-info: stronger effect = higher value
Out of some 260,000 compounds screened, about 1,500 (0.58%) were called active. About 5% were inconclusive and are not listed. Only a sample is shown. Measured potencies and affinities stand elsewhere.
# inhibition values compiled below
Use % as the unit, but write only the number.

Observe how each entry below is paired with its result.
The recorded inhibition for entry CCC(=O)Nc1c(C)cc(C)cc1Cl equals 1.1

Recorded result, O=C1C(Cl)=C(NC(=O)c2ccccc2)C(=O)C(Cl)=C1NC(=O)c1ccccc1 , inhibition: 20.2

# compound O=[N+]([O-])c1ccc(Cl)c2c1C1C=CCC1C(c1ccccn1)N2 (stereo unspecified) ; its inhibition = -2.51

Record O=C1C(Cl)=C(Nc2ccccc2)C(=O)c2ccccc21 , field inhibition: -1.3

Query CCCC(=O)Nc1ccccc1NC(=O)CCC yields inhibition of 16.5

Continue with the compound presented below.
Lab note: Cc1cc([N+](=O)[O-])cc2ncccc12 gave inhibition of 22.2

---

Each record here notes measured inhibition.
- system-under-test: Virion infectivity factor (Human immunodeficiency virus type 1 group M subtype B (isolate BH10)) + Virion infectivity factor (Human immunodeficiency virus type 1 group M subtype B (isolate BRU/LAI)) + Virion infectivity factor (Human immunodeficiency virus type 1 group M subtype B (isolate PCV12)) + Virion infectivity factor (Human immunodeficiency virus type 1 group M subtype B (isolate HXB2)) + DNA dC->dU-editing enzyme APOBEC-3G (Homo sapiens) (UniProt P69720+P69721+P69722+P69723+Q9HC16)
- experiment-description: inhibitors of Vif binding to APOBEC3G peptide, primary screen, biochemical, TR-FRET, GST-Vif 1-94, biotin-A3G peptide, dose response retest (AID 1117319);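 further: Vif residues 1-94 fused to GST binding biotinylated APOBEC3G peptide 110-148; 0% = full assay without inhibitor and 100% = GST in place of GST-Vif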
- condition-info: stronger effect = higher value
About 1,500 (0.58%) of roughly 260,000 compounds were called active. Not shown: some 5% with an inconclusive outcome. Only a sample is shown. Potency and affinity values are given separately.
Respond numerically; units are % and should not be typed.

Per the record, COc1ccc2c(c1)CC(C1(O)C(=O)N(C)c3ccccc31)C2=O (centres undefined) has inhibition of -5.17

***
Data point: COC(Cc1n[nH]c(=S)n1-c1ccc(Cl)cc1)OC ; inhibition = -7.57

Entry Cc1ccc(CN(Cc2ccccc2)C(=S)Nc2ccccc2C)o1 — recorded inhibition = 13.2

The reported value for O=C(NC1CC1)c1cc(-c2ccccn2)nc2ccccc12 in terms of inhibition is -3.96

---

- system-under-test: Virion infectivity factor (Human immunodeficiency virus type 1 group M subtype B (isolate BH10)) + Virion infectivity factor (Human immunodeficiency virus type 1 group M subtype B (isolate BRU/LAI)) + Virion infectivity factor (Human immunodeficiency virus type 1 group M subtype B (isolate PCV12)) + Virion infectivity factor (Human immunodeficiency virus type 1 group M subtype B (isolate HXB2)) + DNA dC->dU-editing enzyme APOBEC-3G (Homo sapiens) (UniProt P69720+P69721+P69722+P69723+Q9HC16)
- experiment-description: inhibitors of Vif binding to APOBEC3G peptide, primary screen, biochemical, TR-FRET, GST-Vif 1-94, biotin-A3G peptide, dose response retest (AID 1117319);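 further: Vif residues 1-94 fused to GST binding biotinylated APOBEC3G peptide 110-148; 0% = full assay without inhibitor and 100% = GST in place of GST-Vif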
- condition-info: stronger effect = higher value
Hit rate of the full screen: of about 260,000 compounds, about 1,500 (0.58%) were called active. Roughly 5% stayed inconclusive and do not appear here. These entries were drawn from the full list. Results with a measured potency or affinity are listed apart.
inhibition overview
Provide the reading as a plain figure in %.

Measured inhibition, O=C(c1ccccc1)c1ccccc1C(=O)N1CCOCC1 : 5.31

Just so you know, measured inhibition for Cc1ccc(C)c(NC(=O)C2CC=CCC2C(=O)O)c1 (stereo unspecified) came out at -2.09

The compound O=C(O)C1C=CC(C(=O)O)c2ccccc21 (stereo unspecified) showed inhibition equal to -4.89

The measured inhibition associated with Cc1ccc(SCC(=O)N(C)CC(=O)Nc2cccc(F)c2)cc1 reads 0.72

Given item CCC(=O)C1CCCN(C(=O)CCc2nnc(C3(c4ccc(Cl)cc4)CCC3)o2)C1 (stereo unspecified) , the value recorded as its inhibition is 8.39

New cases:
Briefly, inhibition measured for O=C(O)Cn1cc(/C=C2\SC(=O)N(c3ccccc3)C2=O)c2ccccc21 : -7.51

The compound listed as Cc1cc(/C=C2/C(=O)NN(c3ccccc3)C2=O)c(C)n1-c1ccc(O)cc1 has a reported inhibition of -5.99
